System: Jurkat
Experiment: Transfection with β-galactosidase reporter plasmid pCMVSPORT-β-gal, β-gal activity (ONPG)
Format: cell-based
Settings: Jurkat cells; DMS lipid (1:1 DOPE), 1.0 μg plasmid DNA, 1.0 ug peptide; β-gal activity OD 405 nm
observedProperty: Fold Ehancement over Lipid Alone (Fold)
Respond with the bare value in Fold.

Sample records with Fold Ehancement over Lipid Alone:
{"substance": "(K)16YYCQQRSSYPYTFGG [Peptide #6]", "unit": "Fold", "Fold Ehancement over Lipid Alone": 1.75}
{"substance": "(K)16AARSPSYYRYDYGPYYAMDYD [Peptide #9]", "unit": "Fold", "Fold Ehancement over Lipid Alone": 5.78}
{"substance": "(K)16YYCQQSYSTPWTFGQGTK [Peptide #10]", "unit": "Fold", "Fold Ehancement over Lipid Alone": 2}
{"substance": "(K)16VELDSFDY [Peptide #4]", "unit": "Fold", "Fold Ehancement over Lipid Alone": 4.75}
{"substance": "(K)16NSRDSSGIQNV [Peptide #2]", "unit": "Fold", "Fold Ehancement over Lipid Alone": 4.8}
{"substance": "(K)16YYCARSDGNYGYYYALDYDY [Peptide #8]", "unit": "Fold", "Fold Ehancement over Lipid Alone": 1}

(K)16YYCLQSMEDPYTFGG [Peptide #7] has a reported Fold Ehancement over Lipid Alone of 1.47

(K)16AAWDDSLGI [Peptide #3] has a reported Fold Ehancement over Lipid Alone of 4.5

(K)16YYCDIRLRDP [Peptide #1] has a reported Fold Ehancement over Lipid Alone of 4.56

(K)16DYYCAAWDDSLNGYSVF [Peptide #5] has a reported Fold Ehancement over Lipid Alone of 1.28
